For each record, write down the corresponding AC50.
- measured.on: Alpha-2A adrenergic receptor (Homo sapiens, UniProt P08913)
- Sequence (P08913 whole entry): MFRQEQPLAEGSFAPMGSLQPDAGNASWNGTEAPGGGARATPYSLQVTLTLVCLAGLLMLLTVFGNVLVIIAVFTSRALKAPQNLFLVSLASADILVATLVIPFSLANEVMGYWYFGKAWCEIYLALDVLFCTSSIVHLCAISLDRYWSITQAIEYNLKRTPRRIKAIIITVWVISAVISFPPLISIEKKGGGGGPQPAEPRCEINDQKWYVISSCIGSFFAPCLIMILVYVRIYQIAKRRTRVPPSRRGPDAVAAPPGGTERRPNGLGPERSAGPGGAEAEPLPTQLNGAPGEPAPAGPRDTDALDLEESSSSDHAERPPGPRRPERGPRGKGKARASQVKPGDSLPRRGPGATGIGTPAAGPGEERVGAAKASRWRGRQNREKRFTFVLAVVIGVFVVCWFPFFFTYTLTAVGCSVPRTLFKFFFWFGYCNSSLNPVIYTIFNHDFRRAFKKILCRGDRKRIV
- Format: functional, cell-based

Q. Which value of AC50 has been reported for "CC(C)Cn1cnc2c(N)nc3ccccc3c21" in the records?
A. > 10 µM

Q. How about "CC(=O)Nc1ccc(O)cc1" ?
A. > 30 µM

Q. How about "CC(C)C(=O)c1c(C(C)C)nn2ccccc12" ?
A. > 30 µM

Q. How about "C#C[C@]1(O)CC[C@H]2[C@@H]3CCC4=Cc5oncc5C[C@]4(C)[C@H]3CC[C@@]21C" ?
A. > 10 µM

Q. How about CN(C)CCC(c1ccc(Cl)cc1)c1ccccn1 (stereo not drawn) ?
A. > 10 µM

Q. How about "C[C@](N)(Cc1ccc(O)c(O)c1)C(=O)O" ?
A. > 10 µM

Q. How about "CN1CCN(CC/C=C2/c3ccccc3Sc3ccc(S(=O)(=O)N(C)C)cc32)CC1" ?
A. 5.9 µM

Q. How about NC(=O)CN1CC(O)CC1=O (stereo not drawn) ?
A. > 30 µM

Q. How about CC(C)(C)NCC(O)COc1cccc2c1CCC(=O)N2 (stereo not drawn) ?
A. > 10 µM

Q. How about "C[C@H](N)[C@H](O)c1cccc(O)c1" ?
A. > 10 µM

Q. How about "CC[C@@H](C(N)=O)N1CCCC1=O" ?
A. > 30 µM

Q. How about "CO[C@H]1C[C@@H]2CC[C@@H](C)[C@@](O)(O2)C(=O)C(=O)N2CCCC[C@H]2C(=O)O[C@H]([C@H](C)C[C@@H]2CC[C@@H](O)[C@H](OC)C2)CC(=O)[C@H](C)/C=C(\C)[C@@H](O)[C@@H](OC)C(=O)[C@H](C)C[C@H](C)/C=C/C=C/C=C/1C" ?
A. > 10 µM

Q. How about OC(CNCC(O)C1CCc2cc(F)ccc2O1)C1CCc2cc(F)ccc2O1 (stereo not drawn) ?
A. 8.1 µM

Q. How about "C[C@]1(O)CC[C@H]2[C@@H]3CCC4=CC(=O)CC[C@]4(C)[C@@]3(F)[C@@H](O)C[C@@]21C" ?
A. > 10 µM

Q. How about "COc1ccc(-c2ccc3cc(C(=O)O)ccc3c2)cc1C12CC3CC(CC(C3)C1)C2" ?
A. > 30 µM

Q. How about "Nc1nc(/C(=C/CC(=O)O)C(=O)N[C@@H]2C(=O)N3C(C(=O)O)=CCS[C@H]23)cs1" ?
A. > 30 µM

Q. How about CCN(CC)C(=O)N[C@H]1C[C@@H]2c3cccc4[nH]cc(c34)C[C@H]2N(C)C1 [TERGURIDE] ?
A. 0.018 µM

Q. How about "CCCCN1C[C@H](O)[C@@H](O)[C@H](O)[C@H]1CO" ?
A. > 30 µM

----------
- measured.on: D(3) dopamine receptor (Homo sapiens, UniProt P35462)
- Sequence (P35462 whole entry): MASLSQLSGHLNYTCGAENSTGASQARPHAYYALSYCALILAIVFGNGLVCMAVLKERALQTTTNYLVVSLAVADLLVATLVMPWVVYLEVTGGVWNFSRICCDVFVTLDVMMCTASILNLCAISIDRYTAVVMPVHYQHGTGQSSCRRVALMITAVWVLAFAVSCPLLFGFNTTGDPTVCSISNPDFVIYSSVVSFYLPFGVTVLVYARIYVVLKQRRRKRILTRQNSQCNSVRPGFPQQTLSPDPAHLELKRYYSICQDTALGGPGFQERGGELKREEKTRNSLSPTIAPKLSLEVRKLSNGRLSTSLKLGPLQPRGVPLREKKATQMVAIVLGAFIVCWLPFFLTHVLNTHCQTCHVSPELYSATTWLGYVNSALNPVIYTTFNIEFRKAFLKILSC
recorded.endpoint: AC50

Q. Which value of AC50 has been reported for CNC1Cc2ccccc2N(C)c2ccccc21 (stereo not drawn) in the records?
A. > 30 µM

Q. How about "C[C@@H]1O[C@@H](O[C@@H]2C=C3CC[C@@H]4[C@H](CC[C@]5(C)[C@@H](c6ccc(=O)oc6)CC[C@]45O)[C@@]3(C)CC2)[C@H](O)[C@H](O)[C@H]1O" ?
A. > 30 µM

Q. How about "CCc1c(Cl)c(O)c(Cl)c(O)c1C(=O)O[C@H]1[C@H](O)[C@H](OC)[C@H](OC/C2=C\C=C\C[C@H](O)/C(C)=C/[C@H](CC)[C@@H](O[C@@H]3OC(C)(C)[C@@H](OC(=O)C(C)C)[C@H](O)[C@@H]3O)/C(C)=C/C(C)=C/C[C@@H]([C@@H](C)O)OC2=O)O[C@@H]1C" ?
A. > 30 µM

----------
- measured.on: Alpha-1A adrenergic receptor (Homo sapiens)
- Sequence (P35348 whole entry): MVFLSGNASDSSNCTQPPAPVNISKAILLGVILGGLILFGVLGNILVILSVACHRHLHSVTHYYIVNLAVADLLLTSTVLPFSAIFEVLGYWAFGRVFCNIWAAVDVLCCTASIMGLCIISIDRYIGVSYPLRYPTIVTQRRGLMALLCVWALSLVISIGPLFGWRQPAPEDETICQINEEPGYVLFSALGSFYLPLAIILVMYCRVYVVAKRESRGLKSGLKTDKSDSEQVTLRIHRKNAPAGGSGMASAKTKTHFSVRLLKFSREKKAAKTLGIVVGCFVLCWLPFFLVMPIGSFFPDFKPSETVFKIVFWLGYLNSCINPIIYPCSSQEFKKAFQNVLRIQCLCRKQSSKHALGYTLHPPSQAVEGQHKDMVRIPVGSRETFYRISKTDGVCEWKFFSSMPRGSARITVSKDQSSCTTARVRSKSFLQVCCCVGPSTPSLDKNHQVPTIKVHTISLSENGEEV
- Assay type: functional, cell-based
recorded.endpoint: AC50

Q. Which value of AC50 has been reported for "CC(C)C(=O)c1c(C(C)C)nn2ccccc12" in the records?
A. > 30 µM

Q. How about C1CCC(C(CC2CCCCN2)C2CCCCC2)CC1 (centres undefined) ?
A. > 10 µM

Q. How about CCC(C(=O)O)c1ccc(N2Cc3ccccc3C2=O)cc1 (centres undefined) ?
A. > 30 µM

Q. How about COc1ccccc1N1CCN(CC(O)COc2cccc3ccccc23)CC1 (centres undefined) ?
A. > 30 µM

Q. How about "CNC(=O)c1ccccc1Sc1ccc2c(/C=C/c3ccccn3)n[nH]c2c1" ?
A. > 30 µM

Q. How about "CN(C)CCc1c[nH]c2ccc(C[C@H]3COC(=O)N3)cc12" ?
A. 14 µM

Q. How about O=C(OCC(O)CO)c1ccccc1Nc1ccnc2cc(Cl)ccc12 (centres undefined) ?
A. > 30 µM

Q. How about "CCCCN1C[C@H](O)[C@@H](O)[C@H](O)[C@H]1CO" ?
A. > 30 µM

Q. How about CC(=O)O[C@H]1CC[C@@]2(C)C(=CC[C@@H]3[C@@H]2CC[C@]2(C)C(c4cccnc4)=CC[C@@H]32)C1 [ABIRATERONE ACETATE] ?
A. > 30 µM

----------
- measured.on: Alpha-2A adrenergic receptor (Homo sapiens)
- Type: functional, cell-based
recorded.endpoint: AC50

Q. Which value of AC50 has been reported for C=CCC1(C(C)CC)C(=O)NC(=O)NC1=O (stereo not drawn) in the records?
A. > 10 µM

Q. How about "CNS(=O)(=O)Cc1ccc2[nH]cc(CCN(C)C)c2c1" ?
A. > 30 µM

Q. How about "CCCCc1ncc(/C=C(\Cc2cccs2)C(=O)O)n1Cc1ccc(C(=O)O)cc1" ?
A. > 10 µM

Q. How about "CCCCCNC(=N)N/N=C/c1c[nH]c2ccc(OC)cc12" ?
A. 5.65 µM

Q. How about CNC1Cc2ccccc2N(C)c2ccccc21 (stereo not drawn) ?
A. 3.2 µM

Q. How about "C[C@H]1COc2c(C3(N)CC3)c(F)cc3c(=O)c(C(=O)O)cn1c23" ?
A. > 10 µM

Q. How about "CCCc1nc(C(C)(C)O)c(C(=O)OCc2oc(=O)oc2C)n1Cc1ccc(-c2ccccc2-c2nnn[nH]2)cc1" ?
A. > 10 µM

Q. How about "CC[C@H]1CN2CCc3cc(OC)c(OC)cc3[C@@H]2C[C@@H]1C[C@H]1NCCc2cc(OC)c(OC)cc21" ?
A. 1.2 µM

Q. How about "COc1cc2c(N)nc(N3CCN(C(=O)OCC(C)(C)O)CC3)nc2c(OC)c1OC" ?
A. > 30 µM

Q. How about "Cc1nnc2n1-c1ccc(Cl)cc1C(c1ccccc1Cl)=NC2" ?
A. > 10 µM

Q. How about COc1ccc(CCNCC(O)COc2cccc(C)c2)cc1OC (stereo not drawn) ?
A. > 10 µM

Q. How about "CNC(=O)c1ccccc1Sc1ccc2c(/C=C/c3ccccn3)n[nH]c2c1" ?
A. > 30 µM

Q. How about "C#C[C@]1(O)CC[C@H]2[C@@H]3CCc4cc(OC5CCCC5)ccc4[C@H]3CC[C@@]21C" ?
A. > 10 µM

Q. How about "Cc1cn([C@H]2C=C[C@@H](CO)O2)c(=O)[nH]c1=O" ?
A. > 10 µM

Q. How about CCCC(=O)O[C@]1(C(=O)CO)CC[C@H]2[C@@H]3CCC4=CC(=O)CC[C@]4(C)[C@H]3[C@@H](O)C[C@@]21C [HYDROCORTISONE BUTYRATE] ?
A. > 10 µM

Q. How about CN1C(=O)CCS(=O)(=O)C1c1ccc(Cl)cc1 (stereo not drawn) ?
A. > 10 µM

Q. How about "COc1ccc2c3c1O[C@H]1[C@@H](O)C=C[C@H]4[C@@H](C2)N(C)CC[C@@]341" ?
A. > 10 µM

Q. How about Cc1c(OCC(F)(F)F)ccnc1C[S+]([O-])c1nc2ccccc2[nH]1 (stereo not drawn) ?
A. > 10 µM
